The values you see were collected from the nanobody polyreactivity screen of Harvey et al. (2022).

# method summary: yeast display, Sf9 membrane polyspecificity reagent, FACS + sequencing; frameworks hold sequencing errors

sequence string | polyreactivity (PSR sort gate)
QVQLVESGGGLVQAGGSLRLSCAASGLTFTYYAMGWYRQAPGKERELVAAITYSGDSKYYADSVKGLFTISRDNAKNTVYLQMNSLKPEDTAVYYCNAEQYLYYILGNYDYWGQGTQVTVSS | low polyreactivity
QVQLVESGGGLVQAGGSLRLTCAASGFTFRYYAMGWSRQAPGKERELVATISTGSGVSTYYADSVKGRFTISRDNAKNTVYLQMNSLKPEDTAVYYCAAVFGWRRYVTYDYWGQGTQVTVSS | low polyreactivity
QVQLVESGRGLVQAGGTLRLSCAASGSTFNKYAMGWYRQAPGKERELVAAIRSNGVRTYYADSVKVRLTISRDNAKNTVYLQMNSLNPEDTAVYYCNKRYTYRYDYWGQGTQVTVSS | high polyreactivity
QVQLVESGGGLVQAGGSLRLSCAASGFIFRRYSMGRYRQAPAKERELVAASTSGGGRTYYADSVKGRFTISRDNAKNTVYLQMNSLKPEDTAVYYCARVQRGDYDYWGQGTQVTVSS | high polyreactivity
QVQLVESGGGLVQAGGSLRLSCAASGFIFENNAKGWYRQAPGKERELVAGITSGGGSTYYADSVKGRFTISRDNAKNTVYLQMNSLKPEDTAVYYFNKLYTRVGFTFEYWGQGTQVNVSS | low polyreactivity
QVQLVESGGGLVQAGGSLRLSCAASGSTFISNAMGWYRQAPGKERELVAAITRRGGGTYYADSVKGRFTISRDNAMNTVYLQMNSLKPEDTAVYYCAARPWWRGYRFDYWGQGTQVTVSS | high polyreactivity
QVQLVESGGGLVQAGGSLRLSCAASGITFQKYVMGWYRQAPGKEREFVAAITARGGTTYYADSVKGRFTISRDNAKNTVYLQMNSLKPEDTAVYYCAARSYYSGLAYYYWGQGTQVTVSS | high polyreactivity
QVQLVESGGGLVQAGGSLRLSCAASGSTFGWYAMGLYRQAPVKERELVATISSGGSTYYADSVKGRFTISRDNAKNNVYLQMNSLKPEDTAVYYCAADYWTYEYPGYDYWGQGTQVTVSS | low polyreactivity
QVQLVESGGGLVQAGGSLRLSCAASGRIFRPYAMGWYRQAPGKERELVAAISVSGVITYYADSVKGRFTISRDNAKNTVYLQMNSLKPEDTAVYYCARRSSTRYFYGWYDYWGQGTQVTVSS | low polyreactivity
